target: T1, human CTLA4 on CHO cells (human, UniProt P16410 36-223); assay: flow cytometry, CHO cells stably expressing CTLA4
T1 construct: whole, on cells; CHO cells stably expressing CTLA4; also called huCTLA4
T1 sequence (P16410 36-223): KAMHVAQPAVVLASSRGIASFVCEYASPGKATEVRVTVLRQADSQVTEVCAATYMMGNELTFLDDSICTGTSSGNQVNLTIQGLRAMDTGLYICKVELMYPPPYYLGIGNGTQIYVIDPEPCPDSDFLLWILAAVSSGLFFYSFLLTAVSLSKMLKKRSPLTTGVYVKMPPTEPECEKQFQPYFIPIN
measurementName: MFI at 33.3 nM (MFI)

variant CD80 IgV-Fc E35D/D46E/A91G (Fc fusion, not shown: a dimerising Fc or GST) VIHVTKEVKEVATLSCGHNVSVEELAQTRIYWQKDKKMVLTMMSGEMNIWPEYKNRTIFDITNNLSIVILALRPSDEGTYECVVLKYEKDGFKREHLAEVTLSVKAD | 32200
variant CD80 IgV-Fc H18Y/E35D/M47L/A71G/A91S (Fc fusion, not shown: a dimerising Fc or GST) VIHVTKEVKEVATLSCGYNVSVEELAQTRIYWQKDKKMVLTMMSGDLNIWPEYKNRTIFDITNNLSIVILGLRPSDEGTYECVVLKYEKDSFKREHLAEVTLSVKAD | 24200

The reported numbers originate from patent US20210130436A1.
